Taken from patent US20240368135A1.

# Assay target: human NaV 1.8 (Homo sapiens)
# Sequence (Q9Y5Y9 126-399 limits assumed): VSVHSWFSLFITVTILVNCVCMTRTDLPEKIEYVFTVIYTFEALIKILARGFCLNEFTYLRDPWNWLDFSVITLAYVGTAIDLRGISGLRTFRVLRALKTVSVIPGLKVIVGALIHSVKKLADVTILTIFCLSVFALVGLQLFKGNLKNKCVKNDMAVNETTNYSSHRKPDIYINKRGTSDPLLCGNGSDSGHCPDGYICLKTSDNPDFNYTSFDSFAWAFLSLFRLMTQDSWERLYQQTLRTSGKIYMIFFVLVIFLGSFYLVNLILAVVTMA
# Sequence (Q9Y5Y9 660-890 limits assumed): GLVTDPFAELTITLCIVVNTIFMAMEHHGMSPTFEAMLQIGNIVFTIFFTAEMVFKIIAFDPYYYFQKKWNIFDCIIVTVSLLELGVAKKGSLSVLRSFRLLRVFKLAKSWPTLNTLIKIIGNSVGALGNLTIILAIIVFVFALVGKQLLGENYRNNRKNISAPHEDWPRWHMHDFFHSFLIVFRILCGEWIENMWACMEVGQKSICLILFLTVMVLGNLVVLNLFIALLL
# Sequence (Q9Y5Y9 1148-1722 limits assumed): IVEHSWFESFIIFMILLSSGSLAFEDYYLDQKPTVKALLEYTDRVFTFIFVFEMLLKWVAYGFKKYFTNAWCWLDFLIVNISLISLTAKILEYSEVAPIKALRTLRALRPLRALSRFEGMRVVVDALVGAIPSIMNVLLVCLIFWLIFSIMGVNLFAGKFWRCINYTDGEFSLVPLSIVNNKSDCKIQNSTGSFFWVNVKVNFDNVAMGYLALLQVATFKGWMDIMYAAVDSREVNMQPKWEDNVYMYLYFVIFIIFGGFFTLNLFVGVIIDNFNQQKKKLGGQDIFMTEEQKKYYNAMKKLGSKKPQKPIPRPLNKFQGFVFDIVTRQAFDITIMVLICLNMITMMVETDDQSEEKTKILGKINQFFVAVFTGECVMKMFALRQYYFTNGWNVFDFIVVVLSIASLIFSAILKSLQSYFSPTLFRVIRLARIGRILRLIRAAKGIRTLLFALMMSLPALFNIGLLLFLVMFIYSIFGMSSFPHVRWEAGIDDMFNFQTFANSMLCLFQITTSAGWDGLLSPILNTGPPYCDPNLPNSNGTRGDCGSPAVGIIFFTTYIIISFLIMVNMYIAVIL
# Method description: E-VIPR assay detecting and measuring NaV inhibition properties
# Assay type: cell-based
# Measurement conditions: HEK cells expressing truncated human NaV 1.8; no human serum; read-out: IC50 in the E-VIPR Assay

Compound	IC50
COc1c(C2C(C(=O)Nc3ccnc(C(O)C(C)O)c3)OC(C)(C(F)(F)F)C2C)ccc(F)c1C (single isomer, unassigned) [Compound 144]	< 10 nM
CN=S(C)(=O)c1cc(NC(=O)C2OC(C)(C(F)(F)F)C(C)C2c2ccc(F)c(F)c2OC)ccn1 (single isomer, unassigned) [Compound 530]	< 10 nM
CNC(COC)c1cc(NC(=O)[C@@H]2O[C@@](C)(C(F)(F)F)[C@@H](C)[C@H]2c2ccc(F)c(F)c2OC)ccn1 (single isomer, unassigned) [Compound 412]	< 10 nM
COc1c([C@H]2[C@H](C(=O)Nc3cnc4c(c3)OCC4O)O[C@@](C)(C(F)(F)F)[C@H]2C)ccc(F)c1F (single isomer, unassigned) [Compound 409]	100 to 1000 nM
COc1c([C@H]2[C@H](C(=O)Nc3ccnc(N4C[C@@H]5C[C@@H](N5)C4=O)c3)O[C@@](C)(C(F)(F)F)[C@H]2C)ccc(F)c1F (single isomer, unassigned) [Compound 492]	10 to 100 nM
COc1c([C@H]2[C@H](C(=O)Nc3cncc(CO)c3)O[C@@](C)(C(F)(F)F)[C@H]2C)ccc(F)c1F [Compound 383]	10 to 100 nM
C[C@H]1[C@@H](c2ccc(F)c(F)c2OCCO)[C@H](C(=O)Nc2cnn(CC#N)c2)O[C@@]1(C)C(F)(F)F [Compound 549]	100 to 1000 nM
COc1c([C@H]2[C@H](C(=O)Nc3cnc(C)n3C)O[C@@](C)(C(F)(F)F)[C@H]2C)ccc(F)c1F [Compound 447]	10 to 100 nM
CCOc1c([C@@H]2[C@@H](C(=O)Nc3ccn4nnnc4c3)O[C@](C)(C(F)(F)F)[C@@H]2C)ccc(F)c1C (stereo in doubt) [Compound 122]	100 to 1000 nM
CCOc1c([C@@H]2[C@@H](C(=O)Nc3ccnc(S(C)(=N)=O)c3)O[C@](C)(C(F)(F)F)[C@@H]2C)ccc(F)c1F (single isomer, unassigned) [Compound 11]	≥ 1000 nM
COc1c([C@H]2[C@H](C(=O)NCCc3ncc[nH]3)O[C@@](C)(C(F)(F)F)[C@H]2C)ccc(F)c1F [Compound 272]	≥ 1000 nM
COc1c([C@H]2[C@H](C(=O)Nc3cc(C(N)C(C)(C)O)ncc3F)O[C@@](C)(C(F)(F)F)[C@H]2C)ccc(F)c1F (single isomer, unassigned) [Compound 428]	< 10 nM
Cc1nn(C(F)F)cc1NC(=O)[C@@H]1O[C@@](C)(C(F)(F)F)[C@@H](C)[C@H]1c1ccc(F)c(F)c1CCN(C)C [Compound 678]	100 to 1000 nM
Cc1nn(C(F)F)cc1NC(=O)[C@@H]1O[C@@](C)(C(F)(F)F)[C@@H](C)[C@H]1c1ccc(F)c(F)c1OCCN1CC2(COC2)C1 [Compound 598]	10 to 100 nM
COc1c([C@H]2[C@H](C(=O)Nc3cn(C4CCOCC4)nc3C)O[C@@](C)(C(F)(F)F)[C@H]2C)ccc(F)c1F [Compound 325]	10 to 100 nM
COc1c(C2C(C(=O)Nc3ccnc(S(C)(=N)=O)c3)OC(C)(C(F)(F)F)C2C)ccc(F)c1F (single isomer, unassigned) [Compound 55]	< 10 nM
